Attribution: patent US20240166754A1

Target: T1, extracellular domain of mouse IL12RB1 (mIL12Rb1 ECD antigen) (mouse, UniProt Q60837 20-565)
T1 construct: also called murine IL12RB1
T1 sequence: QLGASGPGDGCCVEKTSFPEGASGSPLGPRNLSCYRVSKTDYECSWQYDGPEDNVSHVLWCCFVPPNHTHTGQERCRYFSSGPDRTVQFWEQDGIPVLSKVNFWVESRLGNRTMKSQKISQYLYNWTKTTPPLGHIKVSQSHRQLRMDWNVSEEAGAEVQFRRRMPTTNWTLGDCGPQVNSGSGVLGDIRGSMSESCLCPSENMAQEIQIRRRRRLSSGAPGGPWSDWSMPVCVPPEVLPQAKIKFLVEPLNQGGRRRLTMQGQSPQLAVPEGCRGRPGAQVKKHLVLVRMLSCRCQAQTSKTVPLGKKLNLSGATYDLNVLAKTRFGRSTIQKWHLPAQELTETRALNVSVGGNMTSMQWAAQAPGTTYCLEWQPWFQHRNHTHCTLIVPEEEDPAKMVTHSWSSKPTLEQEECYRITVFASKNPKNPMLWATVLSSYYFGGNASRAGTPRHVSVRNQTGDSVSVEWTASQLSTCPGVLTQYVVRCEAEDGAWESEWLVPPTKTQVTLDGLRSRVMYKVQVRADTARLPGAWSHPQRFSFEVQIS
Experiment: periplasmic extract ELISA on antigen-coated plate after phage biopanning
measured-attribute: binding result

Entry mIL12Rb1_VHH18 (VHH, Camel VHH) VHH: QVQLQESGGGSVQAGGSLRLSCTASGYTYSSAFMAWFRQAPGKEREGVAAMYTRDGGTVYADSVKGRFTISQDNAKNTLYLQMNSLKTEDTAMYYCAAKIPQPGRASLLDSQTYDYWGQGTQVTVSS : reported binding result = ?
binds

# binding result lookup, item mIL12Rb1_VHH12 (VHH, Camel VHH) VHH: QVQLQESGGGSVQAGGSLRLSCAASRYTYTNNFMAWFRQAPGKEREGVAAIYTGDGYAYYFYSVKGRFTISQDNDENMLYLQMNSLKPEDTAMYYCAAMERRIGTRRMTENAEYKYWGQGTQVTVSS
binds

Tell me the measured binding result of mIL12Rb1_VHH20 (VHH, Camel VHH) VHH: QVQLQESGGGSVQAGGSLRLSCVASGYGYCGYDMSWYRQTPGKEREFVALITSDRIASYEDSVKGRFIISRDNAKNTGYLDMTRVTPDDTAIYYCKTSAAARENSWCRSRYRVASWGQGTQVTVSS , please.
binds

Which measured binding result value corresponds to mIL12Rb1_VHH5 (VHH, Camel VHH) VHH: QVQLQESGGGSVQAGETLRLSCTVSGFTIDDSEMGWYRQAPGHECELVASGSSDDDTYYVDSVKGRFTISLDNAKNMVYLQMNSLKPEDTAVYYCATGPTYPPKDGDCAHWGQGTQVTVSS ?
binds
